Values from ChEMBL document CHEMBL1201862

Tested on: UO-31
Experiment: NCI tumour cell line growth inhibition, 48 h
Active and inactive are the calls of the source. Rule as the data show it: active = GI50 up to about 1.1 µM and inactive = higher.
Use one of these outcomes when replying: active, inactive

{"compound": "COC(=O)C1=CS/C(=C2\\S[C@@H]3[C@H](S2)[C@H]2C=C[C@@H]3C2)S1", "cat": "inactive"}

What did this assay record as the result for C=C1CC2OC(=O)C(=C)C2C(O)C2C(=C)CCC12 (centres undefined) ? inactive

Can you handle O=C(/C=C/c1ccc(Cl)cc1)c1nc2ccccc2[nH]1 next? inactive

Can you handle CCC(C)C(C(=O)N/N=C1/SCC(=O)N1c1ccccc1)C(=O)N/N=C1/SCC(=O)N1c1ccccc1 (centres undefined) next? inactive

Can you handle C#CCN(N=O)C(=O)NCCCCC(NC(=O)OCc1ccccc1)C(=O)OCc1ccccc1 (centres undefined) next? inactive

Can you handle Nc1nn(CC(O)CO)c(=O)s1 (centres undefined) next? inactive

Can you handle O=C(NNc1ccccc1)/C(=C/c1ccc2c(c1)OCO2)NC(=O)c1ccccc1 next? inactive

Can you handle CC1=CCCC(C)(O)C2CC(CCC3(C)OC3CC1)C(C)C(=O)O2 (centres undefined) next? inactive
